target_or_test_system: IGF2 (Homo sapiens, UniProt P01344)
Sequence (P01344 25-91): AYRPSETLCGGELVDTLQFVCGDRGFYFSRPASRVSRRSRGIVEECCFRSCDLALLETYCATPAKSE
assay_explanation: SPR (Biacore T200) of recombinant IGF2R domain 11 mutants on immobilised biotinylated IGF2
Type: binding
Design: purchased GroPep
run_parameters: Table 1; 25° C., HBS-EP pH 7.4
result_type: Kinetics kon (M⁻¹ s⁻¹)
Output spec: scalar in M⁻¹ s⁻¹, unitless text.

molecule	Kinetics kon / M⁻¹ s⁻¹
K1601R: domain 11 AB5 background + FG loop K1601R (protein) MKSNEHDDCQVTNPSTGHLFDLSSLSGRAGFTAAYAKGWGVYMSICGENENCPPGVGACFGQTRISVGKANKRLRYVDQVLQLVYKDGSPCPSRSGLSYKSVISFVCRPEAGPTNRPMLISLDKQTCTLFFSWHTPLACEQATECSV	5.28e+06
G1603A: domain 11 AB5 background + FG loop G1603A (protein) MKSNEHDDCQVTNPSTGHLFDLSSLSGRAGFTAAYAKGWGVYMSICGENENCPPGVGACFGQTRISVGKANKRLRYVDQVLQLVYKDGSPCPSKSALSYKSVISFVCRPEAGPTNRPMLISLDKQTCTLFFSWHTPLACEQATECSV	2.14e+06
K1601A: domain 11 AB5 background + FG loop K1601A (protein) MKSNEHDDCQVTNPSTGHLFDLSSLSGRAGFTAAYAKGWGVYMSICGENENCPPGVGACFGQTRISVGKANKRLRYVDQVLQLVYKDGSPCPSASGLSYKSVISFVCRPEAGPTNRPMLISLDKQTCTLFFSWHTPLACEQATECSV	3.26e+06

Record T1633A: domain 11 HI loop mutant T1633A, probably AB5 background (protein) MKSNEHDDCQVTNPSTGHLFDLSSLSGRAGFTAAYAKGWGVYMSICGENENCPPGVGACFGQTRISVGKANKRLRYVDQVLQLVYKDGSPCPSKSGLSYKSVISFVCRPEAGPTNRPMLISLDKQACTLFFSWHTPLACEQATECSV . Reported Kinetics kon: 800000

Record W1546F: domain 11 AB5 with W1546F in the AB loop (protein) MKSNEHDDCQVTNPSTGHLFDLSSLSGRAGFTAAYAKGFGVYMSICGENENCPPGVGACFGQTRISVGKANKRLRYVDQVLQLVYKDGSPCPSKSGLSYKSVISFVCRPEAGPTNRPMLISLDKQTCTLFFSWHTPLACEQATECSV . Reported Kinetics kon: 4.5e+06

Record Q1632E: domain 11 HI loop mutant Q1632E, probably AB5 background (protein) MKSNEHDDCQVTNPSTGHLFDLSSLSGRAGFTAAYAKGWGVYMSICGENENCPPGVGACFGQTRISVGKANKRLRYVDQVLQLVYKDGSPCPSKSGLSYKSVISFVCRPEAGPTNRPMLISLDKETCTLFFSWHTPLACEQATECSV . Reported Kinetics kon: 520000
